Assay Summary: Plasmodium falciparum growth inhibition, primary screen, strain 3D7, DAPI fluorescence, 100 nL (AID 1184);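 note: parasites grown inside human red blood cells in medium with human serum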
Reported Conditions: P. falciparum 3D7 growth, 3 d, higher = more signal
Experimental Endpoint: z-score
Answer with the value's number alone.

z-score lookup needed for COCCOC(=O)N1C(=O)[C@@]2(c3cc(C#CCNC(N)=O)ccc31)[C@H](C(=O)NC[C@H](O)c1ccccc1)[C@H]1C(=O)O[C@H](c3ccccc3)[C@H](c3ccccc3)N1[C@@H]2c1ccc(O)cc1 , thanks. 0.418

z-score lookup needed for O=C(NC1CC1)[C@@H]1c2ccccc2C(=O)N(Cc2ccccc2C(F)(F)F)[C@H]1c1ccc(CO)cc1 , thanks. -0.358

z-score lookup needed for COC(=O)C1=CC(c2ccc(CO)cc2)=CC(c2cccs2)N(C)C=C1C(=O)OC (stereo not given) , thanks. -1.75

z-score lookup needed for Cc1ccc(S[C@]2(C(=O)NCCN3CCOCC3)CC(=O)N(Cc3cc(C(F)(F)F)cc(C(F)(F)F)c3)[C@@H]2c2ccc(CO)cc2)cc1 , thanks. -0.578

z-score lookup needed for CCCNC(=O)[C@@H]1c2ccccc2C(=O)N(Cc2cc(C(F)(F)F)cc(C(F)(F)F)c2)[C@H]1c1ccc(CO)cc1 , thanks. -1.64
